Tested on: HEK-293T
TEST_PROTOCOL: Incucyte cell viability with HEK293T; also: unitless GR value; below 1 slowed growth and below 0 cell loss
Assay type: toxicity, cell-based
CONDITION: human, 12 h, 10 µM, compound concentration 10 uM, replicate number 1, timepoint 12 hours
MEASUREMENT_NAME: Growth Rate
Write no unit; give the number alone.

Consider the following illustrative entries.
-- ask Which Growth Rate is reported for this molecule? NC(N)=Nc1nc(CSCCC(N)=NS(N)(=O)=O)cs1 [FAMOTIDINE]
-- reply 0.65

-- ask Given `CCCn1c(=O)c2[nH]c(-c3ccc(OCC(=O)Nc4ccc(C#N)cc4)cc3)nc2n(CCC)c1=O` , state its recorded Growth Rate.
-- reply 0.85

-- ask What value of measured Growth Rate is listed for CNC[C@H](O)c1ccc(O)c(O)c1 [EPINEPHRINE] ?
-- reply 0.73

-- ask Request the reported Growth Rate associated with Cc1cc(Nc2ncc(Cl)c(Nc3ccccc3S(=O)(=O)C(C)C)n2)c(OC(C)C)cc1C1CCNCC1 [CERITINIB]
-- reply -0.62

---
-- ask Look up Growth Rate: `CC(C)n1cnc2c(Nc3cccc(Cl)c3)nc(N[C@H]3CCCC[C@@H]3N)nc21`
-- reply -0.51

-- ask Given `Cc1cc(C)cc(C(=O)NOCCCCCC(=O)NO)c1` , state its recorded Growth Rate.
-- reply 0.54

-- ask # input molecule: COc1ccc2c(c1OCc1ccccc1)C[C@@H](C(=O)O)N(C(=O)C(c1ccccc1)c1ccccc1)C2 [OLODANRIGAN] ; wanted: its Growth Rate
-- reply 0.74

-- ask Item CC[C@@]1(O)C(=O)OCc2c1cc1n(c2=O)Cc2cc3ccccc3nc2-1 [CAMPTOTHECIN] has what recorded Growth Rate?
-- reply 0.88

-- ask Entry COc1cc2c(Oc3ccc(NC(=O)C4(C(=O)Nc5ccc(F)cc5)CC4)cc3F)ccnc2cc1OCCCN1CCOCC1 [FORETINIB] has what Growth Rate?
-- reply -0.79

-- ask Given the entry `CCOc1ccc(Cc2nc3cc(C(=O)N(CC)CC)ccc3n2CC2CCCCC2)cc1` , report its measured Growth Rate.
-- reply 0.75
